TARGET ENTITY: T1, HER2 immobilised on a Biacore chip (UniProt P04626 23-652, limits assumed)
T1 construct: also called immobilised HER2 target antigen (Biacore SPR); HER2 chip
PROTOCOL DETAILS: Biacore SPR, HER2 amine-coupled to the chip
MEASUREMENT LABEL: koff (s⁻¹)
One number for each entry, in s⁻¹.

Reported koff of scFv (TCT1067)-Acetate DAR 16 (scFv, acetyl groups (from Acetate-NHS) on lysines, N-terminal amine and further residues, 16 additions by LC-MS, also called TCT1067-acetate conjugate 2) scFv: SGSGGSGQVQLVQSGAEVKKPGESLKISCKGSGYSFTSYWIAWVRQMPGKGLEYMGLIYPGDSDTKYSPSFQGQVTISVDKSVSTAYLQWSSLKPSDSAVYFCARHDVGYCTDRTCAAWPEWLGVWGQGTLVTVSSGGGGSGGGGSGGGGSQSVLTQPPSVSAAPGQKVTISCSGSSSNIGNNYVSWYQQLPGTAPKLLIYGHTNRPAGVPDRFSGSKSGTSASLAISGFRSEDEADYYCASWDYTLSGWVFGGGTKLTVLMASMTGGQQMG : 7.64e-05
